tested on: hTERT-HMEC; assay: percentage of EdU-negative (G0-arrested) nuclei per well, 72 h; higher = more G0 arrest; settings: protein concentration 0.225 µM; reference: sequence is the full UniProt precursor, the tested protein was the secreted form or ectodomain;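 further: secreted proteins added to cultured cells, EdU pulse at the end, nuclei found by Hoechst imaging, EdU status from nuclear versus surrounding ring intensity ratio, PBS as neutral control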
Could you label it 1 if measured percentage of EdU-negative is 6% or higher, and 0 otherwise?

1) MRTIAILAAILLVALQAQAESLQERADEATTQKQSGEDNQDLAISFAGNGLSALRTSGSQARATCYCRTGRCATRESLSGVCEISGRLYRLCCR : 0
2) MSSENCFVAENSSLHPESGQENDATSPHFSTRHEGSFQVPVLCAVMNVVFITILIIALIALSVGQYNCPGQYTFSMPSDSHVSSCSEDWVGYQRKCYFISTVKRSWTSAQNACSEHGATLAVIDSEKDMNFLKRYAGREEHWVGLKKEPGHPWKWSNGKEFNNWFNVTGSDKCVFLKNTEVSSMECEKNLYWICNKPYK : 0
3) MAQYLSTLLLLLATLAVALAWSPKEEDRIIPGGIYNADLNDEWVQRALHFAISEYNKATKDDYYRRPLRVLRARQQTVGGVNYFFDVEVGRTICTKSQPNLDTCAFHEQPELQKKQLCSFEIYEVPWENRRSLVKSRCQES : 0
4) MQIITTALVCLLLAGMWPEDVDSKSMQVPFSRCCFSFAEQEIPLRAILCYRNTSSICSNEGLIFKLKRGKEACALDTVGWVQRHRKMLRHCPSKRK : 1
5) MGTSLLCWMALCLLGADHADTGVSQNPRHKITKRGQNVTFRCDPISEHNRLYWYRQTLGQGPEFLTYFQNEAQLEKSRLLSDRFSAERPKGSFSTLEIQRTEQGDSAMYLCASSL : 1
6) MALHIHEACILLLVIPGLVTSAAISHEDYPADEGDQISSNDNLIFDDYRGKGCVDDSGFVYKLGERFFPGHSNCPCVCALDGPVCDQPECPKIHPKCTKVEHNGCCPECKEVKNFCEYHGKNYKILEEFKPSPCEWCRCEPSNEVHCVVADCAVPECVNPVYEPEQCCPVCKNGPNCFAGTTIIPAGIEVKVDECNICHCHNGDWWKPAQCSKRECQGKQTV [B2RUY7] : 0
7) MAEGNTLISVDYEIFGKVQGVFFRKHTQAEGKKLGLVGWVQNTDRGTVQGQLQGPISKVRHMQEWLETRGSPKSHIDKANFNNEKVILKLDYSDFQIVK [G3V2U7] : 0
